Each recorded value in this set is attributed to paper PMC12881670.

Target: T1, FLAG-Mm_Fpr2 C-terminally fused to Renilla Luciferase 8 (mouse, UniProt O88536 1-351)
T1 sequence (looked up): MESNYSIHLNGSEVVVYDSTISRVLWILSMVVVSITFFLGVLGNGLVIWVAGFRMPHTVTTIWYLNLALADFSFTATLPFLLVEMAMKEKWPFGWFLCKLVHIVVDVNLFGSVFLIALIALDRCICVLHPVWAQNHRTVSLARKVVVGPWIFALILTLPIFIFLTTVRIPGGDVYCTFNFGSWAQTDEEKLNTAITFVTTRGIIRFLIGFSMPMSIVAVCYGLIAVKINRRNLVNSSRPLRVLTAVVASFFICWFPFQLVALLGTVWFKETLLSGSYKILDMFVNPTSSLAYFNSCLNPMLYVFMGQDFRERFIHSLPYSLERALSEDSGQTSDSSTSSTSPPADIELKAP
Assay: cell-based or functional assay
Where no end group is shown, it is not given here. [ ]: non-standard residue; d: D form. The star is where a group is joined. Palmitoyl = CCCCCCCCCCCCCCCC(=O)*; For = O=C*
Test Readout: BRET of receptor-RLuc8 with Venus-mGsi: Emax (% of 1 μM WKYMVm) (%)
Field format: number, assumed %, no unit text.

Sample For-MLFK [fMet-Leu-Phe-Lys (fMLFK)] — what was its BRET of receptor-RLuc8 with Venus-mGsi: Emax (% of 1 μM WKYMVm)? 82.7

Sample For-Met-Leu-Phe [fMet-Leu-Phe (fMLF)] — what was its BRET of receptor-RLuc8 with Venus-mGsi: Emax (% of 1 μM WKYMVm)? 13.2

Sample WKYMVM (synthetic hexapeptide, all L residues; also called L-enantiomer of WKYMVm; source: bought: Tocris) — what was its BRET of receptor-RLuc8 with Venus-mGsi: Emax (% of 1 μM WKYMVm)? 87.9

Sample {Palmitoyl-Palmitoyl}-KIHKKGMIKS (Pal is printed twice; the text speaks of N-terminal palmitoylation as the last step of the synthesis; also called pepducin; source: synthetic peptide (Fmoc solid phase, purified by preparative RP-HPLC)) [F2Pal10 (Pal-Pal-KIHKKGMIKS)] — what was its BRET of receptor-RLuc8 with Venus-mGsi: Emax (% of 1 μM WKYMVm)? 24.2

Sample WKYMV[dM] (the last residue is the D form; the bought peptide is probably also an amide (surmise); source: bought: Tocris) [WKYMVm] — what was its BRET of receptor-RLuc8 with Venus-mGsi: Emax (% of 1 μM WKYMVm)? 103

Sample For-MTPMRKINPLMKLIN [MCT-2 (Formyl-MTPMRKINPLMKLIN from Cytochrome b)] — what was its BRET of receptor-RLuc8 with Venus-mGsi: Emax (% of 1 μM WKYMVm)? 25
